# Tested on: Zymoseptoria tritici (SEPTTR-184)
# test_protocol: Efficacy of target gene fragments (MgCytB dsRNA tiles) on wheat plants, SEPTTR-184
# Format: in vivo
# measurement_parameters: 3DC (curative)
quantity_kind: ED80 SEPTTR-184 3DC

Q: Can you share its ED80 SEPTTR-184 3DC? I mean this molecule: MgCytB-T6: 258 bp dsRNA of Zymoseptoria CytB region T6, location 775-1032 (SEQ ID NO:9) (nucleic acid, listed as Zymoseptoria tritici, complementary strand of dsRNA) GTTATGGCTAACCCTATGCAAACTCCACCTGCTATAGTGCCTGAATGATATTTATTACCTTTCTACGCTATACTAAGATCAATACCTAACAAACTATTAGGTGTGATCGCAATGTTTTCTGCTATATTGATTATAATGATAATGCCAATTACCGATTTAGGTAGAAGTAGAGGATTACAGTTTAGACCTTTAAGCAAGATCACATTTTACATATTTGTTGCTAACTTCTTAGTATTAATGCAATTAGGTGCTAATCAC
A: >200 ppm

Q: Can you share its ED80 SEPTTR-184 3DC? I mean this molecule: MgCytB-T3: 116 bp dsRNA of Zymoseptoria CytB region 3, location 279-394 (SEQ ID NO:6) (nucleic acid, listed as Zymoseptoria tritici, long dsRNA, chemistry not given here, further chemistry not given here) TTACCTGCACGTGGGTAGAGGGTTATACTACGGGTCATACAAAGCCCCTAGAACATTAACATGAACAATCGGTACTATAATACTAGTTCTGATGATGGCAACCGCATTCTTAGGGT
A: <3.125 ppm

// switching to the query molecule
Q: Can you share its ED80 SEPTTR-184 3DC? I mean this molecule: MgCytB-T7: 221 bp dsRNA of Zymoseptoria CytB region T7, location 947-1167 (SEQ ID NO:10) (nucleic acid, listed as Zymoseptoria tritici, complementary strand of dsRNA) GATTACAGTTTAGACCTTTAAGCAAGATCACATTTTACATATTTGTTGCTAACTTCTTAGTATTAATGCAATTAGGTGCTAATCACGTTGAGTCACCATTTATAGAATTTGGGCAAATTAGTACAGTACTGTACTTTTCACATTTCTTAATCATAGTGCCTCTAGTAAGCTTAATCGAGAATACTTTAGTGGATATGCACTTAAACAACACAATAACGTAA
A: >200 ppm
